- ASSAY DETAILS: self-splicing fitness, log relative to wild type (ln ratio); higher = more splicing; Tetrahymena group I intron in knt gene, E. coli kanamycin selection, DiMSum; sequences stand for … in CUCUCU…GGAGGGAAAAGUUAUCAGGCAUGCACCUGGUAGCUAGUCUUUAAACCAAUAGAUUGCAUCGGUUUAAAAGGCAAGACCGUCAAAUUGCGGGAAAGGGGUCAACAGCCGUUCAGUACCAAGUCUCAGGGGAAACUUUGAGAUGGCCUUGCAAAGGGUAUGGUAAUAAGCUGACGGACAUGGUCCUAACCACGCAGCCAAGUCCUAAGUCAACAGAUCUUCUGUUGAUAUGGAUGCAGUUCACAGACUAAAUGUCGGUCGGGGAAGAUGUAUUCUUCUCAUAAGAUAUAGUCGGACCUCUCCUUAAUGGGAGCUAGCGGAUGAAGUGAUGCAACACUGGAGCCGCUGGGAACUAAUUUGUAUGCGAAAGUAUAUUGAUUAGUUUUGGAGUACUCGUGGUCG;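 also: selection with 25 µg/mL kanamycin versus none on LB agar overnight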
- SETUP CONDITIONS: 30 °C
MEASUREMENT NAME: self-splicing fitness (ln)

Use the examples below as a reference point.
> print(dat)
        record.sequence            measurement.name  recorded.value
1  CUUCAGCAAUAUUACGAUCU  self-splicing fitness (ln)           -2.86
2  CGCUAGCAAUAUUACGGACG  self-splicing fitness (ln)            -2.4
3  GACGAGCAAUAUUACGUACA  self-splicing fitness (ln)           -3.04
4  CUGGAGCAAUAUUACGUAUG  self-splicing fitness (ln)           -1.78
5  AGCAAGCAAUAUUACGUGUA  self-splicing fitness (ln)           -2.19
6  UGCGAGCAAUAUUACGUAUA  self-splicing fitness (ln)           -2.89

Quick one: self-splicing fitness (ln) for UGUUAGCAAUAUUACGUUGC ?
-2.88

Please answer likewise for CUAGAGCAAUAUUACGCUGU
-3.92

---

- ASSAY DETAILS: self-splicing fitness, log relative to wild type (ln ratio); higher = more splicing; Tetrahymena group I intron in knt gene, E. coli kanamycin selection, DiMSum; sequences stand for … in CUCUCU…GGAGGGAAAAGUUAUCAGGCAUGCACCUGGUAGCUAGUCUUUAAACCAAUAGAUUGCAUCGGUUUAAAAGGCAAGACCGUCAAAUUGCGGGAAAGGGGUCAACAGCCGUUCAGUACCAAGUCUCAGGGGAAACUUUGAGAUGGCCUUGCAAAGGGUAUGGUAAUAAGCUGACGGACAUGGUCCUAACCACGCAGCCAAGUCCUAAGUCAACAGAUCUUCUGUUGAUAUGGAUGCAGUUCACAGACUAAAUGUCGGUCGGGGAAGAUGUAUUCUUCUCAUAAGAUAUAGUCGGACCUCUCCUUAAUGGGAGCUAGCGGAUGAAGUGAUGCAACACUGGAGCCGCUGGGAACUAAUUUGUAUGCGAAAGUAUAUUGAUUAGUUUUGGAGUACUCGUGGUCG
- SETUP CONDITIONS: 37 °C
MEASUREMENT NAME: self-splicing fitness (ln)
// response body must contain only the number

> print(dat)
        record.sequence            measurement.name  recorded.value
1  CACUAGCAAUAUUACGCGGC  self-splicing fitness (ln)           -2.97

# next sequence below
Quick one: self-splicing fitness (ln) for AUGAAGCAAUAUUACGUUGA ?
-0.85

Cited source for all entries: the supplement of paper PMC7877785
